Biological target: UniProt:P08908
Sequence (P08908 whole entry): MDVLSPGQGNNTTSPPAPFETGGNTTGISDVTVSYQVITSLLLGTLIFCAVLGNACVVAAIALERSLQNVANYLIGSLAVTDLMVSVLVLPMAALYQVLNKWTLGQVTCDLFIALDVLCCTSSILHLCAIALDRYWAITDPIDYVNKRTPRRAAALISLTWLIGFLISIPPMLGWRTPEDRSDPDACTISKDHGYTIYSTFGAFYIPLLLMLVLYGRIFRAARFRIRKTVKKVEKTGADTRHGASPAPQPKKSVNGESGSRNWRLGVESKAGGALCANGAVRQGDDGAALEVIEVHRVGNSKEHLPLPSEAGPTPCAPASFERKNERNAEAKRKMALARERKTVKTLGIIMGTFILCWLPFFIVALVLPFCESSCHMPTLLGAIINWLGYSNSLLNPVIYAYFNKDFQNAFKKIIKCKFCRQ
Let's look at some compounds and their measured Ki.
State the value with its unit after it.

Known results for compounds:
Provide one value: measured Ki of "CC(C)c1ccccc1OCCN1CC[C@@H](NS(=O)(=O)c2ccc(Cl)s2)C1"
49 nM

Provide one value: measured Ki of "O=S(=O)(N[C@H]1CCN(CCOc2ccccc2-c2ccccc2)C1)c1ccc(Cl)s1"
147 nM

Provide one value: measured Ki of CSc1ccccc1OCCN1CCC(NS(=O)(=O)c2cccc(Cl)c2)C1 (stereo not given)
5 nM

Others:
Provide one value: measured Ki of CSc1ccccc1OCCN1CCC(NS(=O)(=O)c2ccc(F)cc2)C1 (stereo not given)
10 nM

Provide one value: measured Ki of O=S(=O)(NC1CCN(CCOc2ccccc2)C1)c1ccc(Cl)s1 (stereo not given)
65 nM

====

Consider the following Ki values measured on UniProt:P34969.
Sequence (P34969 whole entry): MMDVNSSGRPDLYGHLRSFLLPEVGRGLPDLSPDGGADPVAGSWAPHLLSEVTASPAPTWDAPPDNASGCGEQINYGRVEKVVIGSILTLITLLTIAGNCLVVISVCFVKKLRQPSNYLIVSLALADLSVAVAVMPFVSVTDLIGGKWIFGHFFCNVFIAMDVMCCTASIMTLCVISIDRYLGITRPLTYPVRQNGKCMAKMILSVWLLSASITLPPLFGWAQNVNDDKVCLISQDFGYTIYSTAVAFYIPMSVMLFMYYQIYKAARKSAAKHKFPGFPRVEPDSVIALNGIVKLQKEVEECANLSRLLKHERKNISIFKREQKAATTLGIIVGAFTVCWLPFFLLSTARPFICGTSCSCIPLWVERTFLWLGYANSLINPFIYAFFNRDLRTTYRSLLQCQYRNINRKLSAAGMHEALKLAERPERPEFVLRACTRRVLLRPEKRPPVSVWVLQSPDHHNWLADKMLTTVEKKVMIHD
// note: answer is a bare numeric in nM

Provide the reported Ki (system: UniProt:P34969) for O=S(=O)(NC1CCN(CCOc2cccc3c2CCCC3)C1)c1ccc(F)cc1 (stereo not drawn)
16

Provide the reported Ki (system: UniProt:P34969) for "O=C(NC1CCN(CCOc2ccccc2-c2ccccc2)CC1)c1cccs1"
276

Provide the reported Ki (system: UniProt:P34969) for O=C(NC1CCN(CCSc2cccc(Cl)c2Cl)C1)c1ccc2ccccc2n1 (stereo not drawn)
1110

Provide the reported Ki (system: UniProt:P34969) for O=C(NC1CCN(CCOc2cccc3c2CCCC3)C1)c1cccc(F)c1 (stereo not drawn)
2220

Provide the reported Ki (system: UniProt:P34969) for "CC(C)(C)c1ccccc1OCCN1CCC(NC(=O)c2cccc(F)c2)CC1"
1670

Provide the reported Ki (system: UniProt:P34969) for "O=S(=O)(c1ccc2cc[nH]c2c1)N1CCC[C@@H]1CCN1CCC(Oc2ccc(Cl)cc2)CC1"
3.2

Provide the reported Ki (system: UniProt:P34969) for Cc1ccccc1C(=O)NC1CCN(CCSc2cccc(Cl)c2Cl)C1 (stereo not drawn)
427

Provide the reported Ki (system: UniProt:P34969) for "CSc1ccccc1OCCN1CCC(NS(=O)(=O)c2ccc(Cl)s2)CC1"
17

Provide the reported Ki (system: UniProt:P34969) for O=S(=O)(NC1CCN(CCOc2cccc(F)c2)C1)c1cccs1 (stereo not drawn)
1440

Provide the reported Ki (system: UniProt:P34969) for "O=S(=O)(NC1CCN(CCOc2ccccc2-c2ccccc2)CC1)c1ccc(Cl)s1"
12

Provide the reported Ki (system: UniProt:P34969) for CCOc1ccccc1C(=O)NC1CCN(CCOc2ccccc2C(C)C)C1 (stereo not drawn)
204

Provide the reported Ki (system: UniProt:P34969) for O=S(=O)(NC1CCN(CCOc2cccc(F)c2)C1)c1ccc(F)c(F)c1 (stereo not drawn)
293
